Entry source: ChEMBL document CHEMBL1671716

# System: Finegoldia magna
# PROTOCOL: Antimicrobial activity against Finegoldia magna after 48 hrs by agar dilution method
# Format: functional
I'd be grateful if you could share measured MIC50 for these entries.
Please reply with the bare figure in µg/mL and do not write the unit itself.

Name the reported MIC50 value associated with the molecule "Cc1ncc([N+](=O)[O-])n1CCO" 0.5

What about "COc1c(N2C[C@@H]3CCCN[C@@H]3C2)c(F)cc2c(=O)c(C(=O)O)cn(C3CC3)c12" ? 0.5

Another molecule: "CO[C@@]1(NC(=O)Cc2cccs2)C(=O)N2C(C(=O)O)=C(COC(N)=O)CS[C@@H]21" 0.5

* * *

Provide the reported Activity of each item.
# System: Anaerococcus prevotii
# PROTOCOL: Antimicrobial activity against Anaerococcus prevotii assessed as percent resistant isolates after 48 hrs by agar dilution method
# Type: functional
Report only the number, with the unit % understood.

// Activity lookup, key: "CO[C@@]1(NC(=O)Cc2cccs2)C(=O)N2C(C(=O)O)=C(COC(N)=O)CS[C@@H]21" 0

Next record, please: "CCC[C@@H]1C[C@@H](C(=O)N[C@@H]([C@H]2O[C@H](SC)[C@H](O)[C@@H](O)[C@H]2O)[C@H](C)Cl)N(C)C1" 40

Also "Cc1ncc([N+](=O)[O-])n1CCO" ? 0

* * *

# System: Bacteroides ovatus
# PROTOCOL: Antimicrobial activity against Bacteroides ovatus assessed as percent susceptible isolates after 48 hrs by agar dilution method
# Assay type: functional
For each of the compounds below, state its Activity.
The figure you give is taken to be in %; do not add the unit.

// Activity lookup, key: "COc1c(N2C[C@@H]3CCCN[C@@H]3C2)c(F)cc2c(=O)c(C(=O)O)cn(C3CC3)c12" 72

Here is the next compound: "CCN1CCN(C(=O)N[C@@H](C(=O)N[C@@H]2C(=O)N3[C@@H]2SC(C)(C)[C@@H]3C(=O)O)c2ccccc2)C(=O)C1=O" 42

Cool, now CO[C@@]1(NC(=O)C2SC(=C(C(N)=O)C(=O)O)S2)C(=O)N2C(C(=O)O)=C(CSc3nnnn3C)CS[C@@H]21 (stereo partly drawn) 89
